These entries and their values trace back to patent US20250304677A1.

- tgt: T1, human folate receptor alpha (hFRα), recombinant protein (human, UniProt P15328 25-233)
- T1 construct: Bought recombinant proteins (His-tagged, or biotinylated via Avi-tag, e.g. AcroBiosystems FO1-H82E2, F01-H52H1); also called hFOLR1; huFOLR1
- test.details: BLI
Criterion: nm (Fold wt) strictly under 2. Met: MET. Not met: NOT MET.

[[record]]
binder = "P01500084: P0150001 with A24V, S27T, M32I, N76D (VHH) VHH: EVQLVESGGGLVQPGGSLRLSCAVSGTGFSGIIMGWYRQAPGKQRELVATVTSHGTTNYADSVKGRFTISRDNAKDTVYLQMNSLRPEDTAVYYCNAHFPGIYWGKGTLVTVSS"
class = "NOT MET"

[[record]]
binder = "P01500086: P0150001 with A24L, S27A, M32P (VHH) VHH: EVQLVESGGGLVQPGGSLRLSCALSGAGFSGPIMGWYRQAPGKQRELVATVTSHGTTNYADSVKGRFTISRDNAKNTVYLQMNSLRPEDTAVYYCNAHFPGIYWGKGTLVTVSS"
class = "MET"

[[record]]
binder = "P01500012: P0150001 with M32I (VHH, Entry carries a His6 tag) VHH: EVQLVESGGGLVQPGGSLRLSCAASGSGFSGIIMGWYRQAPGKQRELVATVTSHGTTNYADSVKGRFTISRDNAKNTVYLQMNSLRPEDTAVYYCNAHFPGIYWGKGTLVTVSS"
class = "NOT MET"

[[record]]
binder = "P01500088: P0150001 with S27T, M32I (VHH) VHH: EVQLVESGGGLVQPGGSLRLSCAASGTGFSGIIMGWYRQAPGKQRELVATVTSHGTTNYADSVKGRFTISRDNAKNTVYLQMNSLRPEDTAVYYCNAHFPGIYWGKGTLVTVSS"
class = "NOT MET"


Could you now consider this next binder?
Q: Confirm or reject: nm (Fold wt) of P01500006: 2HF042(Q1E, Q5V, A14P, V40A, L79Y, K83R, Q108L)-FLAG3-HIS6 (VHH, Entry includes the tags; also called P0150006) VHH: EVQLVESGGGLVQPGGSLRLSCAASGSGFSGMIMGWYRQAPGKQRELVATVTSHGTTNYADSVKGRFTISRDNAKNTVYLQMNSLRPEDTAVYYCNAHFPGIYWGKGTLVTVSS lies strictly below 2
Result: MET
